molecular target: BRD4 (Homo sapiens); experiment: BRD4 IC50, first listed in Table 2; format: binding; conditions: first BRD4 value listed in the cell
Quantity: IC50 (nM)
Your answer should be a plain number; it is taken to be in nM.

Ask: Notebook: pull reported IC50 for BRD4 (Homo sapiens), entry CC[C@@H]1C(=O)Nc2cnc(Nc3ccc(C(=O)NC4CCN(C)CC4)cc3OC)nc2N1C1CCCC1
Result: 9170

Ask: Notebook: pull reported IC50 for BRD4 (Homo sapiens), entry CC[C@@H]1C(=O)N(CC)c2cnc(Nc3ccc(C(=O)NC4CCN(C)CC4)cc3OC)nc2N1C1CCCC1
Result: 339

Ask: Notebook: pull reported IC50 for BRD4 (Homo sapiens), entry COc1cc(C(=O)NC2CCN(C)CC2)ccc1Nc1ccc2c(n1)N(C1CCCC1)[C@H](C)C(=O)N2C
Result: 92

Ask: Notebook: pull reported IC50 for BRD4 (Homo sapiens), entry CC[C@@H]1C(=O)N(C)c2ccc(Nc3ccc(C(=O)NC4CCN(C)CC4)cc3OC)nc2N1C1CCCC1
Result: 263

Ask: Notebook: pull reported IC50 for BRD4 (Homo sapiens), entry CC[C@@H]1C(=O)N(C)c2cnc(Nc3ccc(C(=O)NC4CCN(C)CC4)cc3)nc2N1C1CCCC1
Result: 147

Ask: Notebook: pull reported IC50 for BRD4 (Homo sapiens), entry CC[C@@H]1C(=O)N(C)c2cnc(Nc3ccc(C(=O)NC4CCN(C)CC4)cc3OC3CCOCC3)nc2N1C1CCCC1
Result: 175

Ask: Notebook: pull reported IC50 for BRD4 (Homo sapiens), entry CC[C@@H]1C(=O)N(C)c2ccc(N3CCc4cc(C(=O)NC5CCN(C)CC5)ccc43)nc2N1C1CCCC1
Result: 394

Ask: Notebook: pull reported IC50 for BRD4 (Homo sapiens), entry CC[C@@H]1C(=O)N(C)c2cnc(Nc3ccc(C(=O)NC4CCN(C)CC4)cc3OC3CCCC3)nc2N1C1CCCC1
Result: 112

Ask: Notebook: pull reported IC50 for BRD4 (Homo sapiens), entry C[C@@H]1C(=O)N(C)c2ccc(N3CCc4cc(C(=O)NC5CCN(C)CC5)ccc43)nc2N1C1CCCC1
Result: 160

Ask: Notebook: pull reported IC50 for BRD4 (Homo sapiens), entry CC[C@@H]1C(=O)N(C)c2cnc(N3CCc4cc(C(=O)NC5CCN(C)CC5)ccc43)nc2N1C1CCCC1
Result: 53

Ask: Notebook: pull reported IC50 for BRD4 (Homo sapiens), entry COc1cc(C(=O)NC2CCN(C)CC2)ccc1Nc1ncc2c(n1)N(C1CCCC1)[C@H](CC(C)C)C(=O)N2C
Result: 13500

Ask: Notebook: pull reported IC50 for BRD4 (Homo sapiens), entry CC[C@@H]1C(=O)N(C)c2cnc(N3CCOc4cc(C(=O)NC5CCN(C)CC5)ccc43)nc2N1C1CCCC1
Result: 1620

Ask: Notebook: pull reported IC50 for BRD4 (Homo sapiens), entry CC[C@@H]1C(=O)N(C)c2cnc(Oc3ccc(C(=O)NC4CCN(C)CC4)cc3OC)nc2N1C1CCCC1
Result: 415

Ask: Notebook: pull reported IC50 for BRD4 (Homo sapiens), entry CC[C@@H]1C(=O)N(C)c2cnc(N(C)c3ccc(C(=O)NC4CCN(C)CC4)cc3OC)nc2N1C1CCCC1
Result: 130
